TESTED ON: Neuropeptide Y receptor type 4 (Homo sapiens, UniProt P50391)
Sequence (P50391 whole entry): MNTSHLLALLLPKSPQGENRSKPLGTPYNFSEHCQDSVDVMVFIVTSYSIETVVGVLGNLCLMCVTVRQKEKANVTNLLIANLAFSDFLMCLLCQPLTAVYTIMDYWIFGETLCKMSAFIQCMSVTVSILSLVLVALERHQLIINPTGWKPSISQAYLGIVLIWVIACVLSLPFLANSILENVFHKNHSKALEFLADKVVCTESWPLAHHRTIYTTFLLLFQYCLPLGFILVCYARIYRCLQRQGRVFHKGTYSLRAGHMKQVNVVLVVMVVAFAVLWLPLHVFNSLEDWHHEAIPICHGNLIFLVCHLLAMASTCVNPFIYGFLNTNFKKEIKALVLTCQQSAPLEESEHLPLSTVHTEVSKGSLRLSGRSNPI
ASSAY INFO: Displacement of [3H](2R,7R)-10 from human NPY Y4 receptor expressed in CHO cells co-expressing Gqi5-mtAEQ after 90 mins in presence of L-15 medium by liquid scintillation counting
Type: cell-based
Could you please report measured pKi for the items listed next?
Answers are plain numbers, as −log10 of the molar value.

Solved entries:
CC(C)C[C@H](NC(=O)[C@H](CCCNC(=N)N)NC(=O)[C@H](Cc1ccc(O)cc1)NC(=O)[C@H](N)CCCC[C@@H](N)C(=O)N[C@@H](Cc1ccc(O)cc1)C(=O)N[C@@H](CCCNC(=N)N)C(=O)N[C@@H](CC(C)C)C(=O)N[C@@H](CCCNC(=N)N)C(=O)N[C@@H](Cc1ccc(O)cc1)C(N)=O)C(=O)N[C@@H](CCCNC(=N)N)C(=O)N[C@@H](Cc1ccc(O)cc1)C(N)=O : 8.70
CC(C)C[C@H](NC(=O)[C@H](CCCNC(=N)N)NC(=O)[C@H](Cc1ccc(O)cc1)NC(=O)[C@@H](N)CCCC[C@H](N)C(=O)N[C@@H](Cc1ccc(O)cc1)C(=O)N[C@@H](CCCNC(=N)N)C(=O)N[C@@H](CC(C)C)C(=O)N[C@@H](CCCNC(=N)N)C(=O)N[C@@H](Cc1ccc(O)cc1)C(N)=O)C(=O)N[C@@H](CCCNC(=N)N)C(=O)N[C@@H](Cc1ccc(O)cc1)C(N)=O : 7.77
CCC(=O)N[C@@H](CCCC[C@H](N)C(=O)N[C@@H](Cc1ccc(O)cc1)C(=O)N[C@@H](CCCNC(=N)N)C(=O)N[C@@H](CC(C)C)C(=O)N[C@@H](CCCNC(=N)N)C(=O)N[C@@H](Cc1ccc(O)cc1)C(N)=O)C(=O)N[C@@H](Cc1ccc(O)cc1)C(=O)N[C@@H](CCCNC(=N)N)C(=O)N[C@@H](CC(C)C)C(=O)N[C@@H](CCCNC(=N)N)C(=O)N[C@@H](Cc1ccc(O)cc1)C(N)=O : 8.20

Moving on to another compound below.
// sample `NCCN(CCNC(=O)c1ccc(C(=O)NCCOCCOCCNC(=O)/N=C(/N)NCCC[C@@H](NC(=O)C(c2ccccc2)c2ccccc2)C(=O)NCc2ccc(O)cc2)cc1)CCNC(=O)c1ccc(C(=O)NCCOCCOCCNC(=O)/N=C(/N)NCCC[C@@H](NC(=O)C(c2ccccc2)c2ccccc2)C(=O)NCc2ccc(O)cc2)cc1` , its pKi was 6.82

----------
Kindly supply the reported Intrinsic activity values for the records listed here.
TESTED ON: Neuropeptide Y receptor type 4 (Homo sapiens, UniProt P50391)
ASSAY INFO: Intrinsic activity at human NPY Y4 receptor expressed in HEK293 cells co-expressing CRE-Luc gene assessed as inhibition of forskolin stimulated luciferase activity after 4.5 hrs by luminescence assay relative to pancreatic polypeptide
Type: functional, cell-based
Numbered stars: 1 amine (or outer) side, 2 acyl side, 3 side chain; on linkers, the order of the positions; unused ones are H or OH. Bridge positions count the residues as written; N and C are the ends. Square brackets hold non-standard residues; d marks the D form. Peptide text beside a SMILES is read from it. I, II: the chains in the order shown. X2 = NCCCCNC(=O)/N=C(\N)NCCC[C@H](N[*:1])C(=O)[*:2]; Suberoyl = O=C(CCCCCCC(=O)[*:2])[*:1]

CC(C)C[C@H](NC(=O)[C@H](CCCNC(=N)N)NC(=O)[C@H](Cc1ccc(O)cc1)NC(=O)CCCCCCC(=O)N[C@@H](Cc1ccc(O)cc1)C(=O)N[C@@H](CCCNC(=N)N)C(=O)N[C@@H](CC(C)C)C(=O)N[C@@H](CCCNC(=N)N)C(=O)N[C@@H](Cc1ccc(O)cc1)C(N)=O)C(=O)N[C@@H](C)C(=O)N[C@@H](Cc1ccc(O)cc1)C(N)=O (I: YRLAY-NH2 / II: YRLRY-NH2; linker I:N-II:N via Suberoyl) : 0.99
CC(C)C[C@H](NC(=O)[C@H](CCCNC(=N)N)NC(=O)[C@H](Cc1ccc(O)cc1)NC(=O)CCCCCCC(=O)N[C@@H](Cc1ccc(O)cc1)C(=O)N[C@@H](CCCN/C(N)=N/C(=O)NCCCCN)C(=O)N[C@@H](CC(C)C)C(=O)N[C@@H](CCCNC(=N)N)C(=O)N[C@@H](Cc1ccc(O)cc1)C(N)=O)C(=O)N[C@@H](CCCNC(=N)N)C(=O)N[C@@H](Cc1ccc(O)cc1)C(N)=O (I: Y[X2]LRY-NH2 / II: YRLRY-NH2; linker I:N-II:N via Suberoyl) : 1.06
CC(C)C[C@H](NC(=O)[C@H](CCCNC(=N)N)NC(=O)[C@H](Cc1ccc(O)cc1)NC(=O)[C@H](N)CCCC[C@@H](N)C(=O)N[C@@H](Cc1ccc(O)cc1)C(=O)N[C@@H](CCCNC(=N)N)C(=O)N[C@@H](CC(C)C)C(=O)N[C@@H](CCCNC(=N)N)C(=O)N[C@@H](Cc1ccc(O)cc1)C(N)=O)C(=O)N[C@@H](CCCNC(=N)N)C(=O)N[C@@H](Cc1ccc(O)cc1)C(N)=O : 1.03

--- query ---
I looked up `CCC(=O)N[C@H](CCCC[C@@H](N)C(=O)N[C@H](Cc1ccc(O)cc1)C(=O)N[C@H](CCCNC(=N)N)C(=O)N[C@H](CC(C)C)C(=O)N[C@H](CCCNC(=N)N)C(=O)N[C@H](Cc1ccc(O)cc1)C(N)=O)C(=O)N[C@@H](Cc1ccc(O)cc1)C(=O)N[C@@H](CCCNC(=N)N)C(=O)N[C@@H](CC(C)C)C(=O)N[C@@H](CCCNC(=N)N)C(=O)N[C@@H](Cc1ccc(O)cc1)C(N)=O` and its Intrinsic activity for Neuropeptide Y receptor type 4 (Homo sapiens, UniProt P50391) was 0.98

----------
TESTED ON: Neuropeptide Y receptor type 1 (Homo sapiens)
Sequence (P25929 whole entry): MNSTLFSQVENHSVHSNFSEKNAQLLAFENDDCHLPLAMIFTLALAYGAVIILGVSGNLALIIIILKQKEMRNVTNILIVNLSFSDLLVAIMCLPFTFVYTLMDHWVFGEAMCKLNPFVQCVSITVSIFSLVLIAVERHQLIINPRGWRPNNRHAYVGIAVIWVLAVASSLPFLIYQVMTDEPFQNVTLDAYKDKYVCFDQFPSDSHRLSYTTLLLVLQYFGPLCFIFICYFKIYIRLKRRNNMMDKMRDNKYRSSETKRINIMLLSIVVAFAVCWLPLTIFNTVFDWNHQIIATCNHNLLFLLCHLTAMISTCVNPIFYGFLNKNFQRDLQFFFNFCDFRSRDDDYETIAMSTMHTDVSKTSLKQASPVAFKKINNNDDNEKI
ASSAY INFO: Displacement of [3H]UR-MK136 from human NPY Y1 receptor expressed in human MCF7 cells by liquid scintillation counting
Format: cell-based
Numbered stars: 1 amine (or outer) side, 2 acyl side, 3 side chain; on linkers, the order of the positions; unused ones are H or OH. Bridge positions count the residues as written; N and C are the ends. Square brackets hold non-standard residues; d marks the D form. Peptide text beside a SMILES is read from it. I, II: the chains in the order shown. X2 = NCCCCNC(=O)/N=C(\N)NCCC[C@H](N[*:1])C(=O)[*:2]; Suberoyl = O=C(CCCCCCC(=O)[*:2])[*:1]
Hi there, I'd appreciate the recorded Ki for every entry that follows.
Give bare numbers, in µM.

CC(C)C[C@H](NC(=O)[C@H](CCCNC(=N)N)NC(=O)[C@H](Cc1ccc(O)cc1)NC(=O)CCCCCCC(=O)N[C@@H](Cc1ccc(O)cc1)C(=O)N[C@@H](CCCN/C(N)=N/C(=O)NCCCCN)C(=O)N[C@@H](CC(C)C)C(=O)N[C@@H](CCCNC(=N)N)C(=O)N[C@@H](Cc1ccc(O)cc1)C(N)=O)C(=O)N[C@@H](CCCNC(=N)N)C(=O)N[C@@H](Cc1ccc(O)cc1)C(N)=O (I: Y[X2]LRY-NH2 / II: YRLRY-NH2; linker I:N-II:N via Suberoyl) : 0.41
CC(C)C[C@H](NC(=O)[C@H](CCCNC(=N)N)NC(=O)[C@H](Cc1ccc(O)cc1)NC(=O)[C@@H](N)CCCC[C@H](N)C(=O)N[C@@H](Cc1ccc(O)cc1)C(=O)N[C@@H](CCCNC(=N)N)C(=O)N[C@@H](CC(C)C)C(=O)N[C@@H](CCCNC(=N)N)C(=O)N[C@@H](Cc1ccc(O)cc1)C(N)=O)C(=O)N[C@@H](CCCNC(=N)N)C(=O)N[C@@H](Cc1ccc(O)cc1)C(N)=O : 0.93

Looking up CC(C)C[C@H](NC(=O)[C@H](C)NC(=O)[C@H](Cc1ccc(O)cc1)NC(=O)CCCCCCC(=O)N[C@@H](Cc1ccc(O)cc1)C(=O)N[C@@H](CCCNC(=N)N)C(=O)N[C@@H](CC(C)C)C(=O)N[C@@H](CCCNC(=N)N)C(=O)N[C@@H](Cc1ccc(O)cc1)C(N)=O)C(=O)N[C@@H](CCCNC(=N)N)C(=O)N[C@@H](Cc1ccc(O)cc1)C(N)=O (I: YALRY-NH2 / II: YRLRY-NH2; linker I:N-II:N via Suberoyl) , I see its Ki listed as 1.4

----------
TESTED ON: Neuropeptide Y receptor type 4 (Homo sapiens, UniProt P50391)
ASSAY INFO: Agonist activity at human NPY Y4 receptor expressed in CHO cells co-expressing Gqi5-mtAEQ assessed as induction of calcium mobilization by aequorin luminescence assay
Type: functional, cell-based
QUANTITY KIND: EC50 (nM)
One number for each entry, in nM.

So the reported EC50 for `CC(C)C[C@H](NC(=O)[C@H](CCCNC(=N)N)NC(=O)[C@H](Cc1ccc(O)cc1)NC(=O)[C@@H](N)CCCC[C@H](N)C(=O)N[C@@H](Cc1ccc(O)cc1)C(=O)N[C@@H](CCCNC(=N)N)C(=O)N[C@@H](CC(C)C)C(=O)N[C@@H](CCCNC(=N)N)C(=O)N[C@@H](Cc1ccc(O)cc1)C(N)=O)C(=O)N[C@@H](CCCNC(=N)N)C(=O)N[C@@H](Cc1ccc(O)cc1)C(N)=O` , on Neuropeptide Y receptor type 4 (Homo sapiens, UniProt P50391), turned out to be 18
